Item-by-item account of koff
systemUnderTest: T1, recombinant biotinylated human PAR2 extracellular domain (residues 1-75), N-terminal AviTag, C-terminal Flag … (human, UniProt P55085 26-75, biotin on the AviTag (enzymatic biotinylation))
T1 construct: also called Bio-human-PAR2 ECD; human PAR2 ECD; not shown: N-terminal AviTag (Avidity LLC); C-terminal Flag and poly Histidine tags
T1 sequence (P55085 26-75): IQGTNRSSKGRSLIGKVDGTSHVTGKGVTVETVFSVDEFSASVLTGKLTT
testDescription: Biacore SPR 25 C, pH 6.0

The cases that follow already have their koff on record.
- binder: "PaB670103 Fab (Fab, V domains shown, Fab; also called ZZ1RCX-C09) VH: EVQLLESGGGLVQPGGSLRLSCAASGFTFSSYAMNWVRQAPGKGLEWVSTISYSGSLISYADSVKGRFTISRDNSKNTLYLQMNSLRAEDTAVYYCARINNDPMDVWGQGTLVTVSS VL: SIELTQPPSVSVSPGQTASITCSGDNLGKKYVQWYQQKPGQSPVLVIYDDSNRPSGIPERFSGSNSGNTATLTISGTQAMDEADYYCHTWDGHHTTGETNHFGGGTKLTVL"
  testResult: "0.000607 s⁻¹"
- binder: "PaB670129 Fab (Fab, V domains shown, Fab; also called ZZ1RUE-F02) VH: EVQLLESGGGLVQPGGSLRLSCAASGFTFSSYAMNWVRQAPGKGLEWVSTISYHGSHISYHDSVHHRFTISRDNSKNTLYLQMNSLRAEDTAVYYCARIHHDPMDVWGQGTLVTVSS VL: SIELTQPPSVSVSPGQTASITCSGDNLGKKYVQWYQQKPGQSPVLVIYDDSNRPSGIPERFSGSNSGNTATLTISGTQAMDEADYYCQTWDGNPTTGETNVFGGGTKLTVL"
  testResult: "0.0554 s⁻¹"
- binder: "PaB670048 Fab (Fab, V domains shown, Fab; also called ZZ1KX4-E11) VH: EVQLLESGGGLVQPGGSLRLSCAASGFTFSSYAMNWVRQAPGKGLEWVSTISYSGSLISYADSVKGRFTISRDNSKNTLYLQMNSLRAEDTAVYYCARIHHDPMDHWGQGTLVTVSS VL: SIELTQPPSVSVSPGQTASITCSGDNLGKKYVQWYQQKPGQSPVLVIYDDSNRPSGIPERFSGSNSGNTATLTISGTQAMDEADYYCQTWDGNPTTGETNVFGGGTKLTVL"
  testResult: "0.00497 s⁻¹"

Turning now to a further record.
Prompt: Tell me its koff given Par0067 Fab (Fab, V domains shown, Fab; also called ZZ15D2-D02) VH: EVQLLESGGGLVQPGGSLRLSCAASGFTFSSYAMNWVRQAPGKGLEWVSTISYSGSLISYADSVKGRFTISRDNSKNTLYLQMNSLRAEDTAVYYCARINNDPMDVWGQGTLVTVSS VL: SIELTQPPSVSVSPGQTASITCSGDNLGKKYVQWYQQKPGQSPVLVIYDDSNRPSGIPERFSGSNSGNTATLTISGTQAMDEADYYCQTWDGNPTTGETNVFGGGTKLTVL as the entry.
Completion: 9.72e-05 s⁻¹
